system: Escherichia coli ATCC 25922; format: cell-based; conditions: ATCC 25922
Square brackets hold non-standard residues; d marks the D form. Peptide text beside a SMILES is read from it. * marks the point of attachment. Acm = CC(=O)NC*
Would you kindly list MIC E. coli for each of these compounds?
Use µg/mL as the unit, but write only the number.

// MIC E. coli lookup, key: CSCC[C@H](NC(=O)[C@H](CCCNC(=N)N)NC(=O)[C@H](Cc1c[nH]c2ccccc12)NC(=O)[C@H](CCC(N)=O)NC(=O)[C@H](Cc1c[nH]c2ccccc12)NC(=O)[C@H](CCCNC(=N)N)NC(=O)[C@H](CCCNC(=N)N)NC(=O)[C@@H](N)CSCNC(C)=O)C(=O)N[C@@H](CCCCN)C(=O)N[C@@H](CCCCN)C(=O)N[C@@H](CC(C)C)C(=O)NCC(=O)N[C@@H](C)C(=O)O [LFB 19-31] (H-C(Acm)RRWQWRMKKLGA-OH; N-terminus assumed)
200

Record request: MIC E. coli value, item CSCC[C@H](NC(=O)[C@H](CCCNC(=N)N)NC(=O)[C@H](Cc1c[nH]c2ccccc12)NC(=O)[C@H](CCC(N)=O)NC(=O)[C@H](Cc1c[nH]c2ccccc12)NC(=O)[C@H](CCCNC(=N)N)NC(=O)[C@H](CCCNC(=N)N)NC(=O)[C@H](CSCNC(C)=O)NC(=O)[C@H](CCCCN)NC(=O)[C@@H](N)Cc1ccccc1)C(=O)N[C@@H](CCCCN)C(=O)N[C@@H](CCCCN)C(=O)N[C@@H](C)C(=O)NCC(=O)N[C@@H](C)C(=O)O [LFB A13] (H-FKC(Acm)RRWQWRMKKAGA-OH)
50

Given the compound CSCC[C@H](NC(=O)[C@H](CCCNC(=N)N)NC(=O)[C@H](Cc1c[nH]c2ccccc12)NC(=O)[C@H](CCC(N)=O)NC(=O)[C@H](Cc1c[nH]c2ccccc12)NC(=O)[C@H](C)NC(=O)[C@H](CCCNC(=N)N)NC(=O)[C@H](CSCNC(C)=O)NC(=O)[C@H](CCCCN)NC(=O)[C@@H](N)Cc1ccccc1)C(=O)N[C@@H](CCCCN)C(=O)N[C@@H](CCCCN)C(=O)N[C@@H](CC(C)C)C(=O)NCC(=O)N[C@@H](C)C(=O)O [LFB A5] (H-FKC(Acm)RAWQWRMKKLGA-OH) , what is its reported MIC E. coli?
120

I'd like to know its MIC E. coli. The compound in question is N=C(N)NCCC[C@@H](N)C(=O)N[C@H](Cc1c[nH]c2ccccc12)C(=O)N[C@@H](Cc1c[nH]c2ccccc12)C(=O)N[C@@H](CCCNC(=N)N)C(=O)N[C@@H](Cc1ccc(O)cc1)C(=O)N[C@H](Cc1c[nH]c2ccccc12)C(=O)N[C@H](CCCNC(=N)N)C(N)=O [arg-trp-TRP-ARG-TYR-trp-arg-CONH2] (H-[dR][dW]WRY[dW][dR]-NH2)
7.5

Reported MIC E. coli for `CSCC[C@H](NC(=O)[C@H](CCCNC(=N)N)NC(=O)[C@H](Cc1ccc2ccccc2c1)NC(=O)[C@H](CCC(N)=O)NC(=O)[C@H](Cc1c(S(=O)(=O)c2c(C)c(C)c3c(c2C)CCC(C)(C)O3)[nH]c2ccccc12)NC(=O)[C@H](CCCNC(=N)N)NC(=O)[C@H](CCCNC(=N)N)NC(=O)[C@H](CSCNC(C)=O)NC(=O)[C@H](CCCCN)NC(=O)[C@@H](N)Cc1ccccc1)C(=O)N[C@@H](CCCCN)C(=O)N[C@@H](CCCCN)C(=O)N[C@@H](CC(C)C)C(=O)NCC(=O)N[C@@H](C)C(=O)O` : what is it?
20
